- system-tested: M2
- method-description: ELISA on coated antigen, column M2

{"binder": "PDL1-23E10 (scFv, V domains shown) VH: QMQLVESGAEVKKPGSSVKVSCKVSGENFRSHAISWVRQAPGQGLEWMGRIIPIVGLADYPQKFQGRVTISADESTGTAYMDLSSLRSEDTAVYYCVTGRPPWHWGQGILITVSS VL: QLVLTQPPSVSGAPGQRVTISCTGSSSNIGAGYDVHWYQQLPGTAPKLLIYSNRNRPSGVPDRFSGSKSGTSASLAITGLQAEDEADYYCQSYDSSLSGPNYVFGTGTKVTVL", "absorbance at 490 nm": 2.1}

Where do the numbers come from? From patent US20190322750A1.
